assay: Conversion of HPPs to parent drugs in human plasma (half life); assay type: in vitro ADME; conditions: 37° C., HPLC
Entries and their measured Half life of HPPs in plasma follow.
Please state the value followed by its unit.

Recorded Half life of HPPs in plasma, per entry:
| Compound | Value |
| --- | --- |
| Br.CCN(CC)CCOC(=O)/C=C(C)/C=C/C=C(C)\C=C\C1=C(C)CCCC1(C)C | 12 ± 1 min |
| C=C(c1ccc(C(=O)OCCN(CC)CC)cc1)c1cc2c(cc1C)C(C)(C)CCC2(C)C.Cl | 15 ± 1 min |
| Br.CCN(CC)CCOC(=O)/C=C(C)/C=C/C=C(C)/C=C/C1=C(C)CCCC1(C)C | 11 ± 1 min |

Lookup: Return reported Half life of HPPs in plasma. Input compound: CC1=C(/C=C/C(C)=C/C=C/C(C)=C/COC(=O)CN(C)C)C(C)(C)CCC1.Cl [retinyl N,N-dimethyl-2-aminoacetate·HCl]
Found: 20 ± 1 min

Lookup: Return reported Half life of HPPs in plasma. Input compound: `Br.CCN(CC)CCOC(=O)\C=C(C)/C=C/C=C(C)/C=C/C1=C(C)CCCC1(C)C`
Found: 13 ± 1 min

----------
experiment: In vitro penetration across human skin in modified Franz cells; conditions: parent compound, 5% suspension in pH 7.4 phosphate buffer (0.2 M); isolated human skin, Franz cells, n=5
Attribute Measured: In vitro Penetration Rate (apparent flux) of Parent compounds (mg/cm^2/h)
Output spec: scalar in mg/cm^2/h, unitless text.

Recorded In vitro Penetration Rate (apparent flux) of Parent compounds, per entry:
| Molecule | Value |
| --- | --- |
| CC1=C(/C=C/C(C)=C/C=C/C(C)=C\C(=O)O)C(C)(C)CCC1 [13-cis-retinoic acid (isotretinoin), 13-cis-retinoic acid] | 0.005 |
| CC1=C(/C=C/C(C)=C/C=C/C(C)=C/C(=O)O)C(C)(C)CCC1 [all-trans-retinoic acid (tretinoin), all-trans-retinoic acid, reference compound] | 0.005 |
| CC1=C(/C=C/C(C)=C\C=C\C(C)=C\C(=O)O)C(C)(C)CCC1 [9-cis-retinoic acid (alitretinoin), 9-cis-retinoic acid, reference compound] | 0.005 |

As a next step, examine the molecule that follows.
Lookup: Return reported In vitro Penetration Rate (apparent flux) of Parent compounds. Input molecule: C=C(c1ccc(C(=O)O)cc1)c1cc2c(cc1C)C(C)(C)CCC2(C)C [bexaroten (Targretin ®), reference compound]
Found: 0.001

----------
experiment: In vitro penetration across human skin in modified Franz cells; conditions: pH 7.4
Attribute Measured: In vitro Penetration Rate (apparent flux) of HPPs (mg/cm^2/h)
Output spec: scalar in mg/cm^2/h, unitless text.

Recorded In vitro Penetration Rate (apparent flux) of HPPs, per entry:
| Compound | Unit Abbreviation | Value |
| --- | --- | --- |
| Br.CCN(CC)CCOC(=O)/C=C(C)/C=C/C=C(C)/C=C/C1=C(C)CCCC1(C)C | mg/cm^2/h | 1.25 |
| CC1=C(/C=C/C(C)=C/C=C/C(C)=C/COC(=O)CN(C)C)C(C)(C)CCC1.Cl [retinyl N,N-dimethyl-2-aminoacetate·HCl] | mg/cm^2/h | 1.21 |
| Br.CCN(CC)CCOC(=O)\C=C(C)/C=C/C=C(C)/C=C/C1=C(C)CCCC1(C)C | mg/cm^2/h | 0.85 |

As a next step, examine the compound that follows.
Lookup: Return reported In vitro Penetration Rate (apparent flux) of HPPs. Input compound: `C=C(c1ccc(C(=O)OCCN(CC)CC)cc1)c1cc2c(cc1C)C(C)(C)CCC2(C)C.Cl`
Found: 0.35
